Below: a set of entries, each annotated with reported self-splicing fitness (ln).
# ASSAY_NOTES: self-splicing fitness, log relative to wild type (ln ratio); higher = more splicing; Tetrahymena group I intron in knt gene, E. coli kanamycin selection, DiMSum; sequences stand for … in CUCUCU…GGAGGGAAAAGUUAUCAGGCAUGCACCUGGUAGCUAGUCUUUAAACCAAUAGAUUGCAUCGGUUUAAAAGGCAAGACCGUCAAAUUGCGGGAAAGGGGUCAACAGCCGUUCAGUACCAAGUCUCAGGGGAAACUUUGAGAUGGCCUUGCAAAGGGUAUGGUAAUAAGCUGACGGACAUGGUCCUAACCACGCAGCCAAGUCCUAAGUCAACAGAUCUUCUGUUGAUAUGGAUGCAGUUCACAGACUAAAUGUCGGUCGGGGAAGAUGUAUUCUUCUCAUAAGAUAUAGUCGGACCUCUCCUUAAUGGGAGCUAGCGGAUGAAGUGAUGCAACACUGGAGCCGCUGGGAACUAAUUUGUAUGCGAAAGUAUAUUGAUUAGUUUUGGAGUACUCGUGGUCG;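 also: selection with 25 µg/mL kanamycin versus none on LB agar overnight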
# STATED_CONDITIONS: 37 °C
Respond using a number only.

Below: 7 sequences and their reported self-splicing fitness (ln).
AGGCAGCAAUAUUACGCUGU; -3.28
GACGAGCAAUAUUACGAAUU; -2.55
UAGGAGCAAUAUUACGUAAG; -2.01
ACAUAGCAAUAUUACGCCCG; -0.298
GACAAGCAAUAUUACGUGAC; -1.42
AGAUAGCAAUAUUACGGCUC; -0.656
CUCGAGCAAUAUUACGAUUG; -2.04

Turning now to a further sequence:
# self-splicing fitness (ln) of "UUACAGCAAUAUUACGCUUG" = -0.126

----------
Measured self-splicing fitness (ln), listed per entry for reference.
# ASSAY_NOTES: self-splicing fitness, log relative to wild type (ln ratio); higher = more splicing; Tetrahymena group I intron in knt gene, E. coli kanamycin selection, DiMSum; sequences stand for … in CUCUCU…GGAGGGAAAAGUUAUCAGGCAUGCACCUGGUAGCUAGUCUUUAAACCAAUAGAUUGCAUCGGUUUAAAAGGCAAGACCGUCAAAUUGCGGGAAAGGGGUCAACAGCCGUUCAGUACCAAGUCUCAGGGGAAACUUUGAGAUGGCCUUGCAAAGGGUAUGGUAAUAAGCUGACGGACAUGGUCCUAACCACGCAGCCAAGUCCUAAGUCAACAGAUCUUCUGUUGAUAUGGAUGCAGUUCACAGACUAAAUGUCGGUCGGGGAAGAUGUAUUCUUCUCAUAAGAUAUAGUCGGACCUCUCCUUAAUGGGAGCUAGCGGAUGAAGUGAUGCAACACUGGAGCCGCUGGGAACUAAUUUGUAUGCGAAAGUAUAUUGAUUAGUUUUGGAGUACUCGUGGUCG
# STATED_CONDITIONS: 37 °C
The answer should be a number; do not append a unit.

UCGGAGCAAUAUUACGGAAU; -2.38
GUUCAGCAAUAUUACGCUUG; -0.171
AACCAGCAAUAUUACGCAGG; -2.28

In plain terms, "AGAGAGCAAUAUUACGGAAC" has a documented self-splicing fitness (ln) of -1.83

----------
# ASSAY_NOTES: self-splicing fitness, log relative to wild type (ln ratio); higher = more splicing; Tetrahymena group I intron in knt gene, E. coli kanamycin selection, DiMSum; sequences stand for … in CUCUCU…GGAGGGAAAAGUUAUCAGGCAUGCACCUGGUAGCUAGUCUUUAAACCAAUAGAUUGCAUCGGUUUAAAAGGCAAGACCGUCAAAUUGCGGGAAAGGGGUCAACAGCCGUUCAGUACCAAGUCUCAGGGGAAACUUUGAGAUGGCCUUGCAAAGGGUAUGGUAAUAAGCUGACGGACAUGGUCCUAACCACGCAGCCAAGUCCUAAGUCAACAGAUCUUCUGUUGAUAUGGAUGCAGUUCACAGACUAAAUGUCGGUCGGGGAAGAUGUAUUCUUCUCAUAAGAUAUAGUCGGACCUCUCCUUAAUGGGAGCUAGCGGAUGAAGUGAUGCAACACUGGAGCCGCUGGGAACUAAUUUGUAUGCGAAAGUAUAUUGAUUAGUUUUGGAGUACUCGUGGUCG
# STATED_CONDITIONS: 30 °C
Each record here notes measured self-splicing fitness (ln).

UAGGAGCAAUAUUACGAGGA; -2.78
AUUAAGCAAUAUUACGUAGA; -2.39

Shifting focus to the sequence that follows.
Value of self-splicing fitness (ln) reported for the sequence "CUGCAGCAAUAUUACGAGUA" is -2.85

----------
# self-splicing fitness (ln) per record follows
# ASSAY_NOTES: self-splicing fitness, log relative to wild type (ln ratio); higher = more splicing; Tetrahymena group I intron in knt gene, E. coli kanamycin selection, DiMSum; sequences stand for … in CUCUCU…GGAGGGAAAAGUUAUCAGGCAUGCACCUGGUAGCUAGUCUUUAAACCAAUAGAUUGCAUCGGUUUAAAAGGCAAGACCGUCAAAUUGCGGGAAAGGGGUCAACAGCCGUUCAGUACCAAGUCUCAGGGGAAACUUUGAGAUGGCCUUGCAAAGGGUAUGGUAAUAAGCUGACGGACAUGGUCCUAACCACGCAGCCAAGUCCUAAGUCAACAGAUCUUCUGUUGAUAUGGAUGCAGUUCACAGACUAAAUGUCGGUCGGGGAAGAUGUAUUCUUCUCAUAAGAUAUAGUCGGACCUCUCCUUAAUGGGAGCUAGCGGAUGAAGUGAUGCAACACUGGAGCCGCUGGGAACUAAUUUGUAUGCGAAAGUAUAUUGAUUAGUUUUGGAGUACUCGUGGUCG
# STATED_CONDITIONS: 37 °C
# output: bare number, no unit

UUCUAGCAAUAUUACGGCUC; -0.913
AUUUAGCAAUAUUACGGGUU; -0.906

Next, consider the following sequence.
So, "UCAUAGCAAUAUUACGCUGU" ? Its self-splicing fitness (ln) was -1.95

----------
# ASSAY_NOTES: self-splicing fitness, log relative to wild type (ln ratio); higher = more splicing; Tetrahymena group I intron in knt gene, E. coli kanamycin selection, DiMSum; sequences stand for … in CUCUCU…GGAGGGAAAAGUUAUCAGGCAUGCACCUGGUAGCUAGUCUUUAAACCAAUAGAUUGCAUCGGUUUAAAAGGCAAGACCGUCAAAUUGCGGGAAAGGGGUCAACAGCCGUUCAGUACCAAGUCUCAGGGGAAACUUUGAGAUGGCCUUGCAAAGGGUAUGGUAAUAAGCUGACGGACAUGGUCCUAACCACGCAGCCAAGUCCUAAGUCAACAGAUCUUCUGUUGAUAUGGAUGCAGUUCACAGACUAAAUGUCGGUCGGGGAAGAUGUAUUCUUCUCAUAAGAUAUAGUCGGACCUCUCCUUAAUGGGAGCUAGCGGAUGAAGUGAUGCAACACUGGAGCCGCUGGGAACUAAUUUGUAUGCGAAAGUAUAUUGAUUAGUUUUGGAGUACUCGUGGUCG
# STATED_CONDITIONS: 30 °C
MEASURED_ENDPOINT: self-splicing fitness (ln)
Would you mind answering with just the numeric figure?

Example cases with answers are listed next.
GCGCAGCAAUAUUACGUACC; -1.63
CGUGAGCAAUAUUACGCGCC; -2.85
UACCAGCAAUAUUACGGUUC; -3.88
CCUCAGCAAUAUUACGCCGC; -3.72
AUGGAGCAAUAUUACGUUAA; -2.58
GGCAAGCAAUAUUACGCGGC; -3.13
AACUAGCAAUAUUACGACAG; -1.7
CCACAGCAAUAUUACGCAAC; -2.45

Sure, the documented self-splicing fitness (ln) for "CAAAAGCAAUAUUACGCUAU" is -2.78

response.value for "UGGAAGCAAUAUUACGUCUG" (field: self-splicing fitness (ln)) = -2.56

sequence "GGUUAGCAAUAUUACGCUCG" , self-splicing fitness (ln) observed: -0.367

Per the record, "AAUAAGCAAUAUUACGACGA" has self-splicing fitness (ln) of -0.785

----------
# ASSAY_NOTES: self-splicing fitness, log relative to wild type (ln ratio); higher = more splicing; Tetrahymena group I intron in knt gene, E. coli kanamycin selection, DiMSum; sequences stand for … in CUCUCU…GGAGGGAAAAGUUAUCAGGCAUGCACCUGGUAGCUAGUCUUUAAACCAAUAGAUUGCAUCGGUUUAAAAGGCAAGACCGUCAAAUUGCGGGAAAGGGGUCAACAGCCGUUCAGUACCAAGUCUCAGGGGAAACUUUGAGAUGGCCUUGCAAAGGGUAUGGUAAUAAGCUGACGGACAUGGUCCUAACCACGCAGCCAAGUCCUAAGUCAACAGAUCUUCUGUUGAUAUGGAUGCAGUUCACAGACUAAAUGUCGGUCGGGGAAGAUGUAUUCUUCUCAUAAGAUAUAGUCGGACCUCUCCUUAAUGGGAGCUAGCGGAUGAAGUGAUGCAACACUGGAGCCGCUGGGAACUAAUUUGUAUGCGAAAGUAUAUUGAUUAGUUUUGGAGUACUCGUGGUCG
# STATED_CONDITIONS: 37 °C
MEASURED_ENDPOINT: self-splicing fitness (ln)
Reply briefly: the number, and no unit.

A selection of reference data follows.
ACCUAGCAAUAUUACGCUUU; -0.293
ACACAGCAAUAUUACGGAGU; -2.01
ACAAAGCAAUAUUACGUUGU; -2.18
AAUUAGCAAUAUUACGAGUU; -1.28
GUCCAGCAAUAUUACGCUGU; -0.386

The sequence "UAGCAGCAAUAUUACGGUGU" showed self-splicing fitness (ln) equal to -1.84

Kindly note the recorded self-splicing fitness (ln) for "CAGUAGCAAUAUUACGCCUG" , which is -2.46
